Test system: Beet Armyworm (BAW) (Spodoptera exigua)
Experimental Details: Bioassay on beet armyworm (BAW), 128-well diet tray assay
Format: in vivo
Stated Conditions: Spodoptera exigua; Beet armyworm, 50 μg/cm^2; read-out: % Mortality BAW 50 μg/cm^2
Would you mind telling me the reported pest or weed control at 50 µg/cm2, 50 µg/cm2 of each entry?

Lookup result for CC1CCS/C(=N\N=C\c2ccc(-c3ncn(-c4ccc(OC(F)(F)F)cc4)n3)cc2)N1c1ccccc1OC(F)F (stereo not shown) [Compound 221C] ; measured pest or weed control at 50 µg/cm2, 50 µg/cm2: 50 to 100%

Lookup result for COc1ccc(C(C)/N=C(/N/N=C/c2ccc(-c3ncn(-c4ccc(OC(F)(F)F)cc4)n3)cc2)SCC(=O)O)cc1 (stereo not shown) [Compound 52C] ; measured pest or weed control at 50 µg/cm2, 50 µg/cm2: 0 to 50%

Lookup result for `CCCS/C(=N\c1c(Cl)cccc1Cl)N/N=C/c1ccc(-c2ncn(-c3ccc(OC(F)(F)F)cc3)n2)cc1` ; measured pest or weed control at 50 µg/cm2, 50 µg/cm2: 50 to 100%

Lookup result for O=C1CS/C(=N\N=C\c2ccc(-c3ncn(-c4ccc(OC(F)(F)F)cc4)n3)cc2)N1c1ccccc1-c1ccccc1 [Compound 96C] ; measured pest or weed control at 50 µg/cm2, 50 µg/cm2: 50 to 100%

----------
System: Beet Armyworm (BAW) (Spodoptera exigua)
Experimental Details: Bioassay on beet armyworm (BAW), 128-well diet tray assay
Format: in vivo
Stated Conditions: Spodoptera exigua; Beet armyworm, 50 μg/cm^2; read-out: % Mortality BAW 50 μg/cm^2
Measure: pest or weed control at 50 µg/cm2, 50 µg/cm2

Given the compound FC(F)(F)Oc1ccc(-n2cnc(-c3ccc(/C=N/N=C4\SCCCN4c4ccccc4-c4ccccc4)cc3)n2)cc1 [Compound 194C] and test system Beet Armyworm (BAW) (Spodoptera exigua), the measured pest or weed control at 50 µg/cm2, 50 µg/cm2 is 50 to 100%

Given the compound COc1ccc(/N=C(/N/N=C/c2ccc(-c3ncn(-c4ccc(OC(F)(F)C(F)(F)F)cc4)n3)cc2)SCC(=O)O)c(C)c1 [Compound 50C] and test system Beet Armyworm (BAW) (Spodoptera exigua), the measured pest or weed control at 50 µg/cm2, 50 µg/cm2 is 50 to 100%

Given the compound COc1ccc(N2C(=O)CS/C2=N\N=C\c2ccc(-c3ncn(-c4ccc(OC(F)(F)F)cc4)n3)cc2)c(C)c1 [Compound 114C] and test system Beet Armyworm (BAW) (Spodoptera exigua), the measured pest or weed control at 50 µg/cm2, 50 µg/cm2 is 50 to 100%

----------
Test system: Beet Armyworm (BAW) (Spodoptera exigua)
Experimental Details: Bioassay on beet armyworm (BAW), 128-well diet tray assay
Type: in vivo
Stated Conditions: Spodoptera exigua; Beet armyworm, 50 μg/cm^2; read-out: % Mortality BAW 50 μg/cm^2
Would you mind telling me the reported pest or weed control at 50 µg/cm2, 50 µg/cm2 of each entry?

Lookup result for CCOc1ccccc1N1C(=O)CS/C1=N\N=C\c1ccc(-c2ncn(-c3ccc(OC(F)(F)F)cc3)n2)cc1 [Compound 116C] ; measured pest or weed control at 50 µg/cm2, 50 µg/cm2: 50 to 100%

Lookup result for COc1ccc(N2C(=O)CS/C2=N\N=C\c2ccc(-c3ncn(-c4ccc(OC(F)(F)F)cc4)n3)cc2)cc1 [Compound 115C] ; measured pest or weed control at 50 µg/cm2, 50 µg/cm2: 0 to 50%

Lookup result for Cc1cccc(C)c1-n1c(C)cs/c1=N\N=C\c1ccc(-c2ncn(-c3ccc(OC(F)(F)F)cc3)n2)cc1 [Compound 175C] ; measured pest or weed control at 50 µg/cm2, 50 µg/cm2: 50 to 100%

Lookup result for Cc1cccc(C)c1/N=C(/N/N=C/c1ccc(-c2ncn(-c3ccc(OC(F)(F)F)cc3)n2)cc1)SCc1ccc(S(C)(=O)=O)cc1 [Compound 17C] ; measured pest or weed control at 50 µg/cm2, 50 µg/cm2: 50 to 100%

Lookup result for CC1S/C(=N\N=C\c2ccc(-c3ncn(-c4ccc(OC(F)(F)F)cc4)n3)cc2)N(c2c(F)cccc2F)C1=O (stereo not shown) [Compound 131C] ; measured pest or weed control at 50 µg/cm2, 50 µg/cm2: 50 to 100%

Lookup result for CC1S/C(=N\N=C\c2ccc(-c3ncn(-c4ccc(OC(F)(F)F)cc4)n3)cc2)N(c2ccccc2C2CC2)C1=O (stereo not shown) [Compound 127C] ; measured pest or weed control at 50 µg/cm2, 50 µg/cm2: 50 to 100%

Lookup result for CCc1ccccc1N1C(=O)CS/C1=N\N=C\c1ccc(-c2ncn(-c3ccc(OC(F)(F)F)cc3)n2)cc1 [Compound 94C] ; measured pest or weed control at 50 µg/cm2, 50 µg/cm2: 50 to 100%
